- measured-on: T1, cynomolgus ROR1 (cynoROR1) on CHO-K1 cells (cynomolgus, UniProt A0A2K5WTX7 30-937)
- T1 construct: whole, on cells; also called CHO-K1-cynoROR1; CHO-K1-cyROR1
- assay: FACS, CHO-K1-cynoROR1 cells
Each record here notes measured MAX(MFI).
Respond with the bare value in MFI.

Here's what some known entries look like.
binder | property-label | observed-measurement
PR001352 (antibody, human IgG1, kappa, V domains shown, fully human IgG1, kappa) VH: EVQLLESGGGVVQPGRSLRLSCAASGFTFSSYGMHWVRQAPGKGLEWVAVKWYDGISQNFADSVKGRFTISRDNSKNTLYLQMNSLRAEDTAVYYCARDLARSFDLWGRGTLVTVSS VL: DIQLTQSPSSLSASVGDRVTITCRASQTINNWLAWYQQKPGKAPKLLIYKASSLESGVPSRFSGSGSGTEFTLTISSLQPDDFATYYCQQYNSYSPMYTFGQGTKVEIKR | MAX(MFI) | 30700
PR001355 (antibody, human IgG1, kappa, V domains shown, fully human IgG1, kappa) VH: QVQLVQSGGGLVQPGGSLRLSCAASGFTFSSYGMHWVRQAPGKGLEWVAVIWYDGSNKDYADSVKGRFTISRDTSKNTLYLQMNSLRAEDTAVYYCVREQARSFDLWGRGTLVTVSS VL: DIQMTQSPSSLSASVGDRVTITCRASQTMNNWLAWYQQKPGKAPKLLIYKASSLESGVPSRFSGSGSGTEFTLTISSLQPDDSATYYCQQYNSYSPMYTFGQGTKLEIKR | MAX(MFI) | 30000

Item: PR001356 (antibody, human IgG1, kappa, V domains shown, fully human IgG1, kappa; also called anti-ROR1 1015M2-E6 hIgG1; PR001356(WT)) VH: QVQLVESGGGVVQPGRSLRLSCAASGFTFSSYGMHWVRQAPGKGLEWVAVAWYDGVSEDYADSVKGRFTISRDNAKNTLYLQMNSLRAEDTAVYYCAREQARSFDLWGRGTLVTVSS VL: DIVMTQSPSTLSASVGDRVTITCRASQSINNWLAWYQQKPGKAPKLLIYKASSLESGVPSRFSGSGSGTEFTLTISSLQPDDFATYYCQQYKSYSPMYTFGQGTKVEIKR | MAX(MFI): 29700
